Assay: in vivo
Conditions: female, Sprague-Dawley, rat, plasma, iv, 15 mg/kg
Experimental: Pharmacokinetic analyses were performed by Pharmacelsus (Saarbrücken, Germany). […] Blood (100 μl) was collected from three animals per time point (5, 10, 20, 30, 60, and 120 min postdose for mice and 5, 15, 30, 60, 180, and 420 min postdose for rats) in tubes containing K3-EDTA as an anticoagulant. […] The protein-free supernatant was analyzed by LC-MS using an Ultimate 3000RS ultrahigh-performance liquid chromatograph (U-HPLC) coupled with an Orbitrap Q Exactive mass spectrometer. […]
Non-standard residues stand in square brackets, D forms with d. Residues, ends and D or L forms follow the SMILES beside them. Dab(3S-OH) = NC[C@H](O)[C@H](N)C(=O)O; Phe(2-F) = N[C@@H](Cc1ccccc1F)C(=O)O; ΔZArg = N=C(N)NCC/C=C(\N)C(=O)O; dOrn = NCCC[C@@H](N)C(=O)O; Dab = NCC[C@H](N)C(=O)O
METRIC NAME: AUC(0-t)
Report field: quantity (unit follows the number).

Sure, the documented AUC(0-t) for N=C(N)NCC/C=C(\NC(=O)[C@H](CCCCN)NC(=O)[C@H](Cc1ccccc1F)NC(=O)[C@@H]1CCCN1C(=O)[C@@H](CCCN)NC(=O)CNC(=O)[C@H](CCN)NC(=O)[C@@H](NC(=O)[C@@H](N)CCCCN)[C@@H](O)CN)C(=O)O [NOSO-502] (H-K[Dab(3S-OH)][Dab]G[dOrn]P[Phe(2-F)]K[ΔZArg]-OH) is 7990 ng·h/mL

---

test: in vivo; details: female, CD-1, mouse, plasma, iv, 30 mg/kg
Non-standard residues stand in square brackets, D forms with d. Residues, ends and D or L forms follow the SMILES beside them. Dab(3S-OH) = NC[C@H](O)[C@H](N)C(=O)O; Phe(2-F) = N[C@@H](Cc1ccccc1F)C(=O)O; ΔZArg = N=C(N)NCC/C=C(\N)C(=O)O; dOrn = NCCC[C@@H](N)C(=O)O; Dab = NCC[C@H](N)C(=O)O
METRIC NAME: Cmax (ng/mL)
Write it as a number; the unit ng/mL goes unstated.

Sure, the documented Cmax for N=C(N)NCC/C=C(\NC(=O)[C@H](CCCCN)NC(=O)[C@H](Cc1ccccc1F)NC(=O)[C@@H]1CCCN1C(=O)[C@@H](CCCN)NC(=O)CNC(=O)[C@H](CCN)NC(=O)[C@@H](NC(=O)[C@@H](N)CCCCN)[C@@H](O)CN)C(=O)O [NOSO-502] (H-K[Dab(3S-OH)][Dab]G[dOrn]P[Phe(2-F)]K[ΔZArg]-OH) is 23500

---

assay: in vitro; conditions: human, plasma (EDTA anticoagulant), pH 7.4
Non-standard residues stand in square brackets, D forms with d. Residues, ends and D or L forms follow the SMILES beside them. Dab(3S-OH) = NC[C@H](O)[C@H](N)C(=O)O; Phe(2-F) = N[C@@H](Cc1ccccc1F)C(=O)O; ΔZArg = N=C(N)NCC/C=C(\N)C(=O)O; dOrn = NCCC[C@@H](N)C(=O)O; Dab = NCC[C@H](N)C(=O)O
METRIC NAME: fraction unbound at 4 h, 2 μM
Respond with the number and no other words.

Sure, the documented fraction unbound at 4 h, 2 μM for N=C(N)NCC/C=C(\NC(=O)[C@H](CCCCN)NC(=O)[C@H](Cc1ccccc1F)NC(=O)[C@@H]1CCCN1C(=O)[C@@H](CCCN)NC(=O)CNC(=O)[C@H](CCN)NC(=O)[C@@H](NC(=O)[C@@H](N)CCCCN)[C@@H](O)CN)C(=O)O [NOSO-502] (H-K[Dab(3S-OH)][Dab]G[dOrn]P[Phe(2-F)]K[ΔZArg]-OH) is 0.187

Origin of measurements: paper PMC6125496
